# assay.text: Cell viability of hydrogel-encapsulated hAMSCs (trypan blue)
# Format: cell-based
# experimental.setup: human, hAMSCs encapsulated in EFK8 hydrogel, through 14 days of culture, read-out: hAMSC viability

substance: Ac-KFEFKFEF-NH2 [EFK8, AcN-KFEFKFEF-CONH2]
viability: > 80%
